details: 1×PBS buffer (pH 7.4), 1.0% DMSO, 24-hour incubation at ambient temperature, maximum theoretical 100 μM; second value of the cell
Endpoint: pH 7 solubility (μM)
I only need the number, in μM, no unit after it.

Request: Record request: pH 7 solubility value, item CC(C)(C#Cc1ccc(-c2ccc(Cl)c3c(N(C(=O)N(CCCC(=O)O)CCNC(=O)OCOP(=O)(O)O)S(C)(=O)=O)nn(CC(F)(F)F)c23)c([C@H](Cc2cc(F)cc(F)c2)NC(=O)Cn2nc(C(F)(F)F)c3c2C(F)(F)[C@@H]2C[C@H]32)n1)S(C)(=O)=O
Response: 100

Request: Record request: pH 7 solubility value, item CC(C)(C#Cc1ccc(-c2ccc(Cl)c3c(N(C(=O)NCCCP(=O)(O)O)S(C)(=O)=O)nn(CC(F)(F)F)c23)c([C@H](Cc2cc(F)cc(F)c2)NC(=O)Cn2nc(C(F)(F)F)c3c2C(F)(F)[C@@H]2C[C@H]32)n1)S(C)(=O)=O
Response: 14

Request: Record request: pH 7 solubility value, item CC(C)(C#Cc1ccc(-c2ccc(Cl)c3c(N(C(=O)O[C@H]4C[C@@H](NC(=N)N)C4)S(C)(=O)=O)nn(CC(F)(F)F)c23)c([C@H](Cc2cc(F)cc(F)c2)NC(=O)Cn2nc(C(F)(F)F)c3c2C(F)(F)[C@@H]2C[C@H]32)n1)S(C)(=O)=O
Response: 1

Request: Record request: pH 7 solubility value, item CC(C)(C#Cc1ccc(-c2ccc(Cl)c3c(N(C(=O)CCN4CCOCC4)S(C)(=O)=O)nn(CC(F)(F)F)c23)c([C@H](Cc2cc(F)cc(F)c2)NC(=O)Cn2nc(C(F)(F)F)c3c2C(F)(F)[C@@H]2C[C@H]32)n1)S(C)(=O)=O
Response: 9

###

I'd appreciate it if you could supply pH 2 solubility values for the items below.
settings: 0.1N HCl, 1.0% DMSO, 24-hour incubation at ambient temperature, maximum theoretical 100 μM; first value of the cell
I only need the number, in μM, no unit after it.

Request: Record request: pH 2 solubility value, item CC(C)(C#Cc1ccc(-c2ccc(Cl)c3c(N(C(=O)NCCCCP(=O)(O)O)S(C)(=O)=O)nn(CC(F)(F)F)c23)c([C@H](Cc2cc(F)cc(F)c2)NC(=O)Cn2nc(C(F)(F)F)c3c2C(F)(F)[C@@H]2C[C@H]32)n1)S(C)(=O)=O [Compound 55]
Response: 1

Request: Record request: pH 2 solubility value, item CC(C)(C#Cc1ccc(-c2ccc(Cl)c3c(N(C(=O)OCCCOP(=O)(O)O)S(C)(=O)=O)nn(CC(F)(F)F)c23)c([C@H](Cc2cc(F)cc(F)c2)NC(=O)Cn2nc(C(F)(F)F)c3c2C(F)(F)[C@@H]2C[C@H]32)n1)S(C)(=O)=O [Compound 98]
Response: 1

###

conditions: 1×PBS buffer (pH 7.4), 1.0% DMSO, 24-hour incubation at ambient temperature, maximum theoretical 100 μM; second value of the cell
I'd appreciate it if you could supply pH 7 solubility values for the items below.
I only need the number, in μM, no unit after it.

Request: Record request: pH 7 solubility value, item CC(C)(C#Cc1ccc(-c2ccc(Cl)c3c(N(C(=O)NC(C(=O)O)C(=O)O)S(C)(=O)=O)nn(CC(F)(F)F)c23)c([C@H](Cc2cc(F)cc(F)c2)NC(=O)Cn2nc(C(F)(F)F)c3c2C(F)(F)[C@@H]2C[C@H]32)n1)S(C)(=O)=O
Response: 62

Request: Record request: pH 7 solubility value, item CC(C)(C#Cc1ccc(-c2ccc(Cl)c3c(N(C(=O)N[C@@H](CO)C(=O)O)S(C)(=O)=O)nn(CC(F)(F)F)c23)c([C@H](Cc2cc(F)cc(F)c2)NC(=O)Cn2nc(C(F)(F)F)c3c2C(F)(F)[C@@H]2C[C@H]32)n1)S(C)(=O)=O
Response: 8

Request: Record request: pH 7 solubility value, item CC(C)(C#Cc1ccc(-c2ccc(Cl)c3c(N(C(=O)N(CC(=O)O)CC(=O)O)S(C)(=O)=O)nn(CC(F)(F)F)c23)c([C@H](Cc2cc(F)cc(F)c2)NC(=O)Cn2nc(C(F)(F)F)c3c2C(F)(F)[C@@H]2C[C@H]32)n1)S(C)(=O)=O
Response: 22

Request: Record request: pH 7 solubility value, item CN(C(=O)N(c1nn(CC(F)(F)F)c2c(-c3ccc(C#CC(C)(C)S(C)(=O)=O)nc3[C@H](Cc3cc(F)cc(F)c3)NC(=O)Cn3nc(C(F)(F)F)c4c3C(F)(F)[C@@H]3C[C@H]43)ccc(Cl)c12)S(C)(=O)=O)[C@@H](CC(=O)O)C(=O)O
Response: 15

Request: Record request: pH 7 solubility value, item CC(C)(C#Cc1ccc(-c2ccc(Cl)c3c(N(C(=O)OCCCN)S(C)(=O)=O)nn(CC(F)(F)F)c23)c([C@H](Cc2cc(F)cc(F)c2)NC(=O)Cn2nc(C(F)(F)F)c3c2C(F)(F)[C@@H]2C[C@H]32)n1)S(C)(=O)=O
Response: 7

Request: Record request: pH 7 solubility value, item CN(CCOC(=O)N(c1nn(CC(F)(F)F)c2c(-c3ccc(C#CC(C)(C)S(C)(=O)=O)nc3[C@H](Cc3cc(F)cc(F)c3)NC(=O)Cn3nc(C(F)(F)F)c4c3C(F)(F)[C@@H]3C[C@H]43)ccc(Cl)c12)S(C)(=O)=O)C(=O)OCOP(=O)(O)O
Response: 81

Request: Record request: pH 7 solubility value, item CC(C)(COP(=O)(O)O)C(=O)OCN(c1nn(CC(F)(F)F)c2c(-c3ccc(C#CC(C)(C)S(C)(=O)=O)nc3[C@H](Cc3cc(F)cc(F)c3)NC(=O)Cn3nc(C(F)(F)F)c4c3C(F)(F)[C@@H]3C[C@H]43)ccc(Cl)c12)S(C)(=O)=O
Response: 73

Request: Record request: pH 7 solubility value, item CC(C)(C#Cc1ccc(-c2ccc(Cl)c3c(N(C(=O)NC(CP(=O)(O)O)C(=O)O)S(C)(=O)=O)nn(CC(F)(F)F)c23)c([C@H](Cc2cc(F)cc(F)c2)NC(=O)Cn2nc(C(F)(F)F)c3c2C(F)(F)[C@@H]2C[C@H]32)n1)S(C)(=O)=O (stereo partly drawn)
Response: 42

Request: Record request: pH 7 solubility value, item CC(C)(C#Cc1ccc(-c2ccc(Cl)c3c(N(C(=O)OCCOCCOCCOP(=O)(O)O)S(C)(=O)=O)nn(CC(F)(F)F)c23)c([C@H](Cc2cc(F)cc(F)c2)NC(=O)Cn2nc(C(F)(F)F)c3c2C(F)(F)[C@@H]2C[C@H]32)n1)S(C)(=O)=O
Response: 100

Request: Record request: pH 7 solubility value, item C[C@@H](N)C(=O)OCN(c1nn(CC(F)(F)F)c2c(-c3ccc(C#CC(C)(C)S(C)(=O)=O)nc3[C@H](Cc3cc(F)cc(F)c3)NC(=O)Cn3nc(C(F)(F)F)c4c3C(F)(F)[C@@H]3C[C@H]43)ccc(Cl)c12)S(C)(=O)=O
Response: 2

Request: Record request: pH 7 solubility value, item CC(C)(C#Cc1ccc(-c2ccc(Cl)c3c(N(C(=O)OCCCCOP(=O)(O)O)S(C)(=O)=O)nn(CC(F)(F)F)c23)c([C@H](Cc2cc(F)cc(F)c2)NC(=O)Cn2nc(C(F)(F)F)c3c2C(F)(F)[C@@H]2C[C@H]32)n1)S(C)(=O)=O
Response: 100
